Sourced from patent US10941138B2

Target: human α2δ-1 subunit of Cav2.2 calcium channel (Homo sapiens (Human))
Sequence (P54289 25-1103): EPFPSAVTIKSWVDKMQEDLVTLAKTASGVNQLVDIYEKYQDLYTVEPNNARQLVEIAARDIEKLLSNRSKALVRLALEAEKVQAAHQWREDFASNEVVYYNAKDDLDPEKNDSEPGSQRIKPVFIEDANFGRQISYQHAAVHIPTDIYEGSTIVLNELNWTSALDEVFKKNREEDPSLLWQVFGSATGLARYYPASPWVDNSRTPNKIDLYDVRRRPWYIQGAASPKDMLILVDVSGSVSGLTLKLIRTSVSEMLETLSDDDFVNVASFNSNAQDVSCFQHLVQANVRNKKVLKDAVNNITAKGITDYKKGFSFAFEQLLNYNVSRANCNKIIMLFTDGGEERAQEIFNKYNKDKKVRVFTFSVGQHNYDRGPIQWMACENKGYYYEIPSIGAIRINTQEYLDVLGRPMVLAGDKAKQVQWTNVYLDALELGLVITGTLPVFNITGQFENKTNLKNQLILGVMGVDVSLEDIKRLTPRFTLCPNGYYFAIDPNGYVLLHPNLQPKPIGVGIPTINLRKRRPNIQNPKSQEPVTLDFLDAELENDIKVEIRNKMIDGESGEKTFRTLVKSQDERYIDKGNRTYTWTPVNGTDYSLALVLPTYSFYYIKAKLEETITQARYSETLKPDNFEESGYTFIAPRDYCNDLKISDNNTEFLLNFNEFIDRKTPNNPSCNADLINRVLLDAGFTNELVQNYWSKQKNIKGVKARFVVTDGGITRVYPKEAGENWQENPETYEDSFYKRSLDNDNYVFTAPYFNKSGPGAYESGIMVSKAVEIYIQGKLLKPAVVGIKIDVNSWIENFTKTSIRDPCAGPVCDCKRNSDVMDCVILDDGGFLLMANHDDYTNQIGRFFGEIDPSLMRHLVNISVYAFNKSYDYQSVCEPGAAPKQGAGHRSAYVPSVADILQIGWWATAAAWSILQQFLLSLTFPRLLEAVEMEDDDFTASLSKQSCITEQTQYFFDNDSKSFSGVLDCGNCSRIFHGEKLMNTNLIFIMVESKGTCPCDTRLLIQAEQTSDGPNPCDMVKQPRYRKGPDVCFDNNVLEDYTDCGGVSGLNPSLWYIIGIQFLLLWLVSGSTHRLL
Assay: Binding assay to human α2δ-1 subunit of Cav2.2 calcium channel ([3H]-Gabapentin)
Details: Table 1, human α2δ-1 enriched membranes, read-out: Ki (nM) alpha2delta Hum
Ki for assorted molecules

# count of solved cases: 5
> print(dat)
                                   molecule  outcome.measure  experimental.value
1  CNCCC(Oc1cccc2ccncc12)c1ccccn1 (centres unmarked)               Ki           ≥ 3000 nM
2  c1ccc(CNCCC(Oc2cccc3cnccc23)c2cccs2)cc1 (centres unmarked)               Ki           ≥ 3000 nM
3  CNCCC(Oc1cccc2cnccc12)c1cccnc1 (centres unmarked)               Ki           ≥ 3000 nM
4  CNCCC(Oc1cccc2ncccc12)c1cccs1 (centres unmarked)               Ki       100 to 500 nM
5        CNCC[C@@H](Oc1cccc2ccncc12)c1ccsc1               Ki       100 to 500 nM

(Q) What value of measured Ki is listed for CNCCC(Oc1cccc2ncccc12)C1CCOCC1 (centres unmarked) ?
(A) ≥ 3000 nM

(Q) What value of measured Ki is listed for CNCCC(Oc1cccc2ncccc12)c1nccs1 (centres unmarked) ?
(A) 100 to 500 nM

(Q) What value of measured Ki is listed for `CNCC[C@H](Oc1cccc2ncccc12)c1ccc(Cl)s1` ?
(A) 500 to 3000 nM

(Q) What value of measured Ki is listed for `CNCC[C@H](Oc1cccc2ccncc12)c1ccc(F)s1` ?
(A) 500 to 3000 nM

(Q) What value of measured Ki is listed for `CCNCC[C@H](Oc1cccc2ncccc12)c1cccs1` ?
(A) 100 to 500 nM

(Q) What value of measured Ki is listed for `CNCC[C@H](Oc1cccc2ncccc12)c1cccs1` ?
(A) < 100 nM
